# run.description: Drug concentrations in plasma samples and brain tissue samples after oral administration, LC-MS/MS
# Assay type: in vivo, female C57BL/6 mice
# measurement.conditions: female, C57BL/6, mouse, plasma, 10 mg/kg, 10 mg QD oral, 15 consecutive days, 2Hr after the last dose, mice, read-out: concentration in plasma
metric.name: concentration at 2 h (ng/mL)
Provide the reading as a plain figure in ng/mL.

Task item: I'd like to know its concentration at 2 h. The compound in question is `[2H]C([2H])([2H])Oc1c(-c2cnn(C)n2)ccnc1Nc1cc(NC(=O)[C@H]2CC23CC3)ncc1C(=O)CC`
Reply: 784

---

# target.or.system: JAK1(JH2) (Homo sapiens (Human))
# Sequence (P23458 583-855): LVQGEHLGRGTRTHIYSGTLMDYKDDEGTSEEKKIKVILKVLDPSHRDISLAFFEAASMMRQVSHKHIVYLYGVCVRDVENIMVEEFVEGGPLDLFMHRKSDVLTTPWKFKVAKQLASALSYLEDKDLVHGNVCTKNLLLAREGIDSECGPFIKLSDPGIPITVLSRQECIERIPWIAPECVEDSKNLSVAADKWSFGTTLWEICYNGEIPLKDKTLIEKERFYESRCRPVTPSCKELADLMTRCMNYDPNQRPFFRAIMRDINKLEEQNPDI
# run.description: Pseudo kinase experiment, JAK1 (JH2), tracer/Tb
metric.name: IC50 (nM)
Form entry: value (nM) — number only.

Task item: Need IC50 of [2H]C([2H])([2H])Oc1c(-c2cnn(C)n2)ccnc1Nc1cc(NC(=O)[C@H]2CC23CC3)ncc1C(=O)CC [Compound 4S] , thanks.
Reply: 22
